# protocol: Pharmacokinetics (PK) evaluation in mice
# Type: in vivo
# study_conditions: mouse, liver/plasma; ICR mice, po 10 mg/kg, 0.5 hour; read-out: Liver/Plasma ratio
property_label: Kp at 0.5 h
Field format: numeric only.

CCOC(=O)C1=C(CN2CCN3C(=O)N(C45CCC(CC(=O)O)(C4)C5)C[C@@H]3C2)NC(c2nccs2)=N[C@H]1c1cccc(F)c1C 31

// moving on: another record for Kp at 0.5 h
Please look up its Kp at 0.5 h: `CCOC(=O)C1=C(CN2CCN3C(=O)N(C45CC(CC(=O)O)(C4)C5)C[C@@H]3C2)NC(c2nccs2)=N[C@H]1c1cccc(F)c1C`
120

---

# protocol: Pharmacokinetics (PK) evaluation in mice
# Assay type: in vivo
# study_conditions: mouse, liver/plasma; ICR mice, po 10 mg/kg, 3 hour; read-out: Liver/Plasma ratio
# key: entry, value: Kp at 3 h
Field format: numeric only.

CCOC(=O)C1=C(CN2CCN3C(=O)N(C45CC(CC(=O)O)(C4)C5)C[C@@H]3C2)NC(c2nccs2)=N[C@H]1c1cccc(F)c1C 137

Please look up its Kp at 3 h: `CCOC(=O)C1=C(CN2CCN3C(=O)N(C45CCC(CC(=O)O)(C4)C5)C[C@@H]3C2)NC(c2nccs2)=N[C@H]1c1cccc(F)c1C`
57

---

# protocol: Pharmacokinetics (PK) evaluation in mice
# Assay type: in vivo
# study_conditions: mouse, liver/plasma; ICR mice, po 10 mg/kg, 1 hour; read-out: Liver/Plasma ratio
property_label: Kp at 1 h
Field format: numeric only.

compound	assay_result
CCOC(=O)C1=C(CN2CCN3C(=O)N(C45CCC(CC(=O)O)(C4)C5)C[C@@H]3C2)NC(c2nccs2)=N[C@H]1c1cccc(F)c1C [Compound 58]	40

// moving on: another record for Kp at 1 h
Please look up its Kp at 1 h: CCOC(=O)C1=C(CN2CCN3C(=O)N(C45CC(CC(=O)O)(C4)C5)C[C@@H]3C2)NC(c2nccs2)=N[C@H]1c1cccc(F)c1C [Compound 22]
115

---

# Tested on: HBV (hepatitis B virus) in HepG2.2.15 cells
# protocol: Cell-based anti-viral activity assay (HBV DNA in supernatant by quantitative PCR)
# study_conditions: 120 h, anti-HBV activity, HepG2.2.15 cells, 5 days, read-out: EC50 (HepG2.2.15)
# Description: Cell-Based Anti-Viral Activity Assay The Invention determined the anti-HBV (hepatitis B virus) activity of compounds in HepG2.2.15 cells (Table 1). HepG2.2.15 is a cell line stably transfected with the HBV genome. HepG2.2.15 cells were cultured in DMEM (1X) with 10% fetal bovine serum (Corning), 100 U penicillin (Gibico), 100 μg/mL streptomycin (Gibico), 250 μg/mL geneticin (Gibco) and GlutaMAXTM-I medium (Invitrogen). […]
Kindly apply the following: 1.0 if EC50 is less than 4 nM, 0.0 in every other case.

Illustrative cases are given below, each with its answer.
molecule	discrete_label
CCOC(=O)C1=C(CN2CCN3C(=O)N(C45CCC(CC(=O)O)(CC4)C5)C[C@@H]3C2)NC(c2nccs2)=N[C@H]1c1ccc(F)cc1Cl	0.0
CCOC(=O)C1=C(CN2CCN3C(=O)N(C45CC(CN6CCCC6=O)(C4)C5)C[C@@H]3C2)NC(c2nccs2)=N[C@H]1c1cccc(F)c1C	1.0
CCOC(=O)C1=C(CN2CCN3C(=O)N(C45CC(NS(C)(=O)=O)(C4)C5)C[C@@H]3[C@H]2C(=O)O)NC(c2nccs2)=N[C@H]1c1cccc(F)c1C	0.0

Determine whether this molecule shows EC50 lower than 4 nM (ties excluded): `CCOC(=O)C1=C(CN2CCN3C(=O)N(C45CC(CC(=O)O)(C4)C5)C[C@@H]3[C@H]2COC)NC(c2nccs2)=N[C@H]1c1cccc(F)c1C`
0.0

Determine whether this molecule shows EC50 lower than 4 nM (ties excluded): `CCOC(=O)C1=C(CN2CCN3C(=O)N(C45CCC(C(=O)O)(CC4)CC5)C[C@@H]3C2)NC(c2nccs2)=N[C@H]1c1ccc(F)c(F)c1C`
1.0
